Tested on: CCRF-CEM leukemia
Assay: NCI-60 one-dose screen, 48 h (100 = growth as untreated, 0 = no growth, -100 = all killed)
Conditions: 10 µM unless noted
The panel holds about 83,000 compounds, 20% with a hit somewhere; the sample as a whole holds those more often.
Catalogue of compounds with associated growth
Measured quantity: growth (%)

compound=O=C(O)c1cccc2cccc(-c3c4ccc(=O)c(O)c-4oc4c(O)c(O)ccc34)c12 experimental_result=94.7
compound=CC1=CC(=NC(=O)CBr)C=C/C1=N\S(=O)(=O)c1ccccc1 experimental_result=12.2
compound=Cc1oc2c(C)c3oc(=O)cc(C)c3cc2c1CCl experimental_result=47.6
compound="CN(C)CCSC1=Nc2ccc(Cl)cc2C(c2ccccc2Cl)N(C)C1 (centres undefined)" experimental_result=85.2

====

System: MDA-MB-231 breast
Assay: NCI-60 one-dose screen, 48 h (100 = growth as untreated, 0 = no growth, -100 = all killed)
Conditions: 10 µM unless noted
About 83,000 compounds went through this panel and 20% of them were active in at least one assay; those are over-represented in the sample as a whole. *1 amine or outer side, *2 acyl side, *3 side chain or, on linkers, in order; H or OH if unused. Where a SMILES comes first, the peptide text is derived from it. Bridges are numbered along the chain shown (N, C = ends). Roman numbers before positions name the chains, in order. [ ]: non-standard residue; d: D form. Actinocin(1to9) = Cc1c2oc3c(C)ccc(C(=O)[*:2])c3nc-2c(C(=O)[*:1])c(N)c1=O; NMeV = CN[CH](C(=O)O)C(C)C; Sar = CNCC(=O)O
Catalogue of compounds with associated growth
Measured quantity: growth (%)

compound=O=C(c1ccc(O)c(Br)c1)c1ccc(O)c(Br)c1 assay_system="MDA-MB-231 breast" measured_quantity=growth readout_unit=% experimental_result=101
compound=N=C(N)Sc1cccc[n+]1[O-] assay_system="MDA-MB-231 breast" measured_quantity=growth readout_unit=% experimental_result=59.6
compound=c1ccc(-c2cccc(-c3ccccn3)n2)nc1 assay_system="MDA-MB-231 breast" measured_quantity=growth readout_unit=% experimental_result=44.1
compound="CCCCCCCCCCCCCCCC[N+]1(C)CCCC1c1cccnc1 (configuration not stated)" assay_system="MDA-MB-231 breast" measured_quantity=growth readout_unit=% experimental_result=30.8
compound=O=C(Nc1ccc(Cl)c(Cl)c1)OCc1ccco1 assay_system="MDA-MB-231 breast" measured_quantity=growth readout_unit=% experimental_result=52.2
compound=N#CCc1cccc2ccccc12 assay_system="MDA-MB-231 breast" measured_quantity=growth readout_unit=% experimental_result=103
compound=O=[n+]1c2ccccc2n([O-])c2cc(Cl)ccc21 assay_system="MDA-MB-231 breast" measured_quantity=growth readout_unit=% experimental_result=87.6
compound="COC1=CC(=O)c2c(O)c3c(c(O)c2C1=O)CC(C)(O)OC3 (configuration not stated)" assay_system="MDA-MB-231 breast" measured_quantity=growth readout_unit=% experimental_result=28.3
compound=CCCCCC[C@@H](O)C/C=C\CCCCCCCC(=O)OCCOC assay_system="MDA-MB-231 breast" measured_quantity=growth readout_unit=% experimental_result=90
compound=O=C1/C(=C/c2ccccc2)CCC/C1=C\c1ccccc1 assay_system="MDA-MB-231 breast" measured_quantity=growth readout_unit=% experimental_result=98.9
compound=COC(=O)c1nc(=S)[nH]c(C(=O)OC)c1C(=O)c1ccc(Cl)c(Cl)c1 assay_system="MDA-MB-231 breast" measured_quantity=growth readout_unit=% experimental_result=102
compound="CCN1CCCC(Nc2cc(C)nc(/N=C(/N)Nc3ccc(Cl)c(Cl)c3)n2)C1 (configuration not stated)" assay_system="MDA-MB-231 breast" measured_quantity=growth readout_unit=% experimental_result=-56.6
compound=O=C1C=CC(=O)N1c1ccccc1 assay_system="MDA-MB-231 breast" measured_quantity=growth readout_unit=% experimental_result=78.6
compound=CC(=O)N1CC(=O)NC1=S assay_system="MDA-MB-231 breast" measured_quantity=growth readout_unit=% experimental_result=98.3
compound="CCC(C)C1NC(=O)C(NC(=O)c2c3nc4c(C(=O)NC5C(=O)NC(C(C)CC)C(=O)N6CCCC6C(=O)N(C)CC(=O)N(C)C(C(C)C)C(=O)OC5C)ccc(C)c4oc-3c(C)c(=O)c2N)C(C)OC(=O)C(C(C)C)N(C)C(=O)CN(C)C(=O)C2CCCN2C1=O (configuration not stated) (I: TIP[Sar][NMeV] / II: TIP[Sar][NMeV]; ester I:1-I:C, II:1-II:C; linker I:N-II:N via Actinocin(1to9); configuration not given here)" assay_system="MDA-MB-231 breast" measured_quantity=growth readout_unit=% experimental_result=-12.7
compound=O=C(/C=C/C(Cl)(Cl)Cl)Nc1ccc(Cl)cc1 assay_system="MDA-MB-231 breast" measured_quantity=growth readout_unit=% experimental_result=113
compound=O=C1c2ccccc2Cc2cccc(Cl)c21 assay_system="MDA-MB-231 breast" measured_quantity=growth readout_unit=% experimental_result=95.4
compound=O=C1C(=O)c2cccnc2-c2ncccc21 assay_system="MDA-MB-231 breast" measured_quantity=growth readout_unit=% experimental_result=-39.3
compound=Oc1ccc(Nc2ccc3ccccc3c2)cc1 assay_system="MDA-MB-231 breast" measured_quantity=growth readout_unit=% experimental_result=36
compound="COc1cccc2c1C(=O)c1c(O)c3c(c(O)c1C2=O)C[C@@](O)(C(=O)CO)C[C@@H]3OC1CC(OC(C)=O)C(OC(C)=O)C(C)O1 (some centres not stated)" assay_system="MDA-MB-231 breast" measured_quantity=growth readout_unit=% experimental_result=9.19
compound=CC(=O)c1ccc2c(c1)CCc1ccccc1-2 assay_system="MDA-MB-231 breast" measured_quantity=growth readout_unit=% experimental_result=109
compound="COC1CC(C)C(OC)c2cc(O)cc(c2O)NC(=O)/C(C)=C/C=C\\C(C)C(OC(N)=O)/C(C)=C\\C(C)C1OC (configuration not stated)" assay_system="MDA-MB-231 breast" measured_quantity=growth readout_unit=% experimental_result=32.4
compound=Cc1nn(CCO)c(C)c1N=[N+]([O-])c1c(C)nn(CCO)c1C assay_system="MDA-MB-231 breast" measured_quantity=growth readout_unit=% experimental_result=98.6
compound="CC1(C)OCC(COC(c2ccccc2)(c2ccccc2)c2ccccc2)O1 (configuration not stated)" assay_system="MDA-MB-231 breast" measured_quantity=growth readout_unit=% experimental_result=91.7
compound=O=C1c2ccccc2C(=O)c2c(O)c(Cl)cc(O)c21 assay_system="MDA-MB-231 breast" measured_quantity=growth readout_unit=% experimental_result=95.6
compound=O=C1Nc2ccc(Br)cc2C1=O assay_system="MDA-MB-231 breast" measured_quantity=growth readout_unit=% experimental_result=96.7
compound=CC(C)c1ccc(Nc2n[nH]c(=S)s2)cc1 assay_system="MDA-MB-231 breast" measured_quantity=growth readout_unit=% experimental_result=89.1
compound="CCN(CC)CC(O)c1cc(-c2ccc(Cl)cc2)nc2cc(Cl)ccc12 (configuration not stated)" assay_system="MDA-MB-231 breast" measured_quantity=growth readout_unit=% experimental_result=-3.65
compound="CCCCCCCCCCCC[n+]1ccccc1 (tested in a mixture with another compound)" assay_system="MDA-MB-231 breast" measured_quantity=growth readout_unit=% experimental_result=-30.4
compound=O=C(NNc1ccccc1)OCc1ccccc1 assay_system="MDA-MB-231 breast" measured_quantity=growth readout_unit=% experimental_result=74.4
compound=S=C=Nc1ccc(N2CCOCC2)cc1 assay_system="MDA-MB-231 breast" measured_quantity=growth readout_unit=% experimental_result=97.3
compound="CCCCCCCCCCCC[N+]1(CCCCCCCCCCCC)CCCC(C)C1 (configuration not stated)" assay_system="MDA-MB-231 breast" measured_quantity=growth readout_unit=% experimental_result=-82.6
compound=O=C(/C=C/c1ccccc1)c1ccccc1O assay_system="MDA-MB-231 breast" measured_quantity=growth readout_unit=% experimental_result=91.5
compound=COc1cc(/C=C/c2ccnc3ccccc23)cc(OC)c1OC assay_system="MDA-MB-231 breast" measured_quantity=growth readout_unit=% experimental_result=47.1
compound=CC[n+]1ccc(Nc2ccc(NC(=O)c3ccc(Nc4cc[n+](CC)c5ccc([N+](=O)[O-])cc45)cc3)cc2)cc1 assay_system="MDA-MB-231 breast" measured_quantity=growth readout_unit=% experimental_result=114
compound=CN=C(N)N/N=C(\c1ccccc1)c1ccc(Br)cc1 assay_system="MDA-MB-231 breast" measured_quantity=growth readout_unit=% experimental_result=-9.39
compound=O=C1C=CC(=O)N1c1cccc2c1CCCC2 assay_system="MDA-MB-231 breast" measured_quantity=growth readout_unit=% experimental_result=106
compound="O=C(c1ccccc1)C(O)C(Br)(CBr)c1ccccc1 (configuration not stated)" assay_system="MDA-MB-231 breast" measured_quantity=growth readout_unit=% experimental_result=91.6
compound=CN1CSC(=S)N(Cc2ccccc2)C1 assay_system="MDA-MB-231 breast" measured_quantity=growth readout_unit=% experimental_result=90.7
compound=CC1(C)CCCC2=C1C(=O)N(SC(Cl)(Cl)Cl)C2=O assay_system="MDA-MB-231 breast" measured_quantity=growth readout_unit=% experimental_result=95.9
compound=COc1cc(/C=C2\SC(=S)N(/C=C/c3nc4ccccc4[nH]c3=O)C2=O)cc(OC)c1OC assay_system="MDA-MB-231 breast" measured_quantity=growth readout_unit=% experimental_result=80.1
compound=O=[N+]([O-])c1ccc2c(c1)Cc1ccccc1-2 assay_system="MDA-MB-231 breast" measured_quantity=growth readout_unit=% experimental_result=102

src = PubChem BioAssay (NCI)
